All figures here come from PubChem BioAssay (NCI).

Assay: NCI Yeast Anticancer Drug Screen. Data for the rad50 strain (AID 155);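 note: 0% = growth of vehicle-only cultures of the same strain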
Settings: S. cerevisiae rad50 strain growth inhibition; at 50.0 µM; hits give high values
Protocol: Growth inhibition of yeast strains with defined genetic alterations is measured as a screen for potential anti-cancer activity. Selected strains with alterations in DNA damage repair or cell cycle control were exposed to compounds and growth inhibition was measured relative to vehicle treated controls. The strain used in this assay is rad50
This is part of a sample that, as a whole, favours compounds with a hit. Of some 79,000 tested, about 15% had one in any assay.
Consider the following molecules; for each one, report its growth inhibition.
Supply the numeric figure in %, leaving out any unit text.

I am curious: what growth inhibition value has been reported for CCC1(O)CC2CN(CCc3c([nH]c4ccccc34)C(C(=O)OC)(c3cc4c(cc3OC)N(C)C3C(O)(C(=O)NCCSSCCNC(=O)C5(O)C(O)C6(CC)C=CCN7CCC8(c9cc(C%10(C(=O)OC)CC%11CN(CCc%12c%10[nH]c%10ccccc%12%10)CC(O)(CC)C%11)c(OC)cc9N(C)C58)C76)C(O)C5(CC)C=CCN6CCC43C65)C2)C1 (stereo not given) ?
23.4

Next up: Cc1c(C)c(Cl)c(C)c(C(Cl)(Cl)Cl)c1C
0.85

Queued: C=CCNC(=O)C1C2C=CC(C2)C1C(=O)NCC=C (stereo not given)
4.95

Again, but for CCc1ccc(S(N)(=O)=O)cc1
11.1

Then what about the molecule CC(Cc1cccc2ccccc12)(C(=O)O)C(=O)O ?
7.15
